compounds and their reported EC50
Tested on: HCV genotype 1b replicon
Experiment: HCV replicon assay (HCV 1b_Huh-Luc/Neo-ET cell line, luciferase readout)
Type: cell-based
Conditions: Hepatitis C virus; bicistronic genotype 1b replicon in Huh 7 cells, 72 h incubation, luciferase enzyme activity; read-out: Inhibition of HCV genotype 1b

// solved cases for EC50 follow
{"structure.notation": "CC(C)(C)OC(=O)N[C@@H](C(=O)N1CCC[C@H]1CNC(=O)c1ccc(-c2ccc(-c3cnc([C@@H]4CCCN4C(=O)[C@H](NC(=O)OC(C)(C)C)c4ccccc4)[nH]3)cc2)cc1)c1ccccc1", "EC50": "< 1 nM"}
{"structure.notation": "COC(=O)N[C@@H](C(=O)N1CCC[C@H]1CNC(=O)c1ccc(-c2ccc(-c3cnc([C@@H]4CCCN4C(=O)[C@@H](c4ccccc4)N4CCCCC4)[nH]3)cc2)cc1)c1ccccc1", "EC50": "< 1 nM"}
{"structure.notation": "COC(=O)N[C@@H](C(=O)N[C@@H](C)c1ncc(-c2ccc(-c3ccc(C(=O)NC[C@@H]4CCCN4C(=O)[C@H](NC(=O)OC)c4ccccc4)cc3)cc2)[nH]1)c1ccccc1", "EC50": "< 1 nM"}

Ask: Quick check: EC50 of "CN1CCN(C(=O)N[C@@H](C(=O)N2CCC[C@H]2COc2ccc(-c3ccc(-c4cnc([C@@H]5CCCN5C(=O)[C@H](NC(=O)N5CCN(C)CC5)c5ccccc5)[nH]4)cc3)cc2)c2ccccc2)CC1" ?
Result: 1 to 9.9 nM

Ask: Same again, this time with "C=CC[C@H](NC(=O)OC)C(=O)N1CCC[C@H]1C(=O)Nc1ccc(-c2ccc(-c3cnc([C@@H]4CCCN4C(=O)[C@H](CC=C)NC(=O)OC)[nH]3)cc2)cc1"
Result: 1 to 9.9 nM

Ask: Here is the next compound: "C[C@@H](NC(=O)OC(C)(C)C)C(=O)N1CCOC[C@H]1C(=O)Nc1ccc(-c2ccc(-c3cnc([C@@H]4CCCN4C(=O)[C@@H](C)NC(=O)OC(C)(C)C)[nH]3)cc2)cc1"
Result: 10 to 999 nM

Ask: Further, for "COC(=O)N[C@H](C(=O)N1CCC[C@H]1c1nc2c([nH]1)-c1ccc(-c3ccc(C(=O)NC[C@@H]4CCCN4C(=O)[C@H](NC(=O)OC)c4ccccc4)cc3)cc1CC2)C(C)C" ?
Result: < 1 nM

Ask: Cool, now "CC(C)(C)OC(=O)N[C@@H](C(=O)N1CCC[C@H]1C(=O)Nc1ccc(-c2ccc(-c3cnc([C@@H]4COCCN4C(=O)[C@H](NC(=O)OC(C)(C)C)c4ccccc4)[nH]3)cc2)cc1)c1ccccc1"
Result: < 1 nM
